I'd be grateful if you could share measured clearance for these entries.
test: The total clearance after i.v. administration; assay type: ADME, organism-based; settings: rat, in vivo, iv
Write it as a number; the unit mL/min/kg goes unstated.

Look up clearance: CCCC[C@H](NC(=O)O[C@H](Cc1nnc(-c2ccc(F)cc2)o1)C(C)(C)C)C(=O)C(=O)NCc1cccnc1 11

Next compound: CCCC[C@H](NC(=O)O[C@H](Cn1cc(-c2ccc(C(F)(F)F)cc2)cn1)C(C)(C)C)C(=O)C(=O)Nc1ccn[nH]1 9.1

Now consider CCCC[C@H](NC(=O)O[C@H](Cc1nnc(-c2ccc(C(F)(F)F)cc2)o1)C(C)(C)C)C(=O)C(=O)NN1CCOC1=O . 11

###

What follows is a collection of pIC50 values obtained with Cathepsin S (Homo sapiens, UniProt P25774).
Sequence (P25774 whole entry): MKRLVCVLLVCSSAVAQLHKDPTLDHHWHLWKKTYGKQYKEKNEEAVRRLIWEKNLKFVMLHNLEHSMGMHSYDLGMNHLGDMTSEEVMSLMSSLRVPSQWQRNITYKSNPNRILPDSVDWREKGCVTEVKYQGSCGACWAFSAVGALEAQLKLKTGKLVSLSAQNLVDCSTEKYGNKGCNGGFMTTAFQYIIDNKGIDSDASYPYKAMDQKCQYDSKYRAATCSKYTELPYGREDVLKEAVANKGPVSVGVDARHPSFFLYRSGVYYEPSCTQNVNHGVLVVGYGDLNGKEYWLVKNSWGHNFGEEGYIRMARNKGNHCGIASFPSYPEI
Quick note: pIC50 values are minus log10 of concentrations in mol/L.

I would be grateful if you could share the reported pIC50 for CCCC[C@H](NC(=O)O[C@H](Cn1ccc(-c2ccc(C(F)(F)F)cc2)n1)C(C)(C)C)C(=O)C(=O)NCc1ccno1 . 4.72

What about this compound? CCCC[C@H](NC(=O)O[C@H](Cc1nnc(-c2ccc(F)cc2)o1)C(C)(C)C)C(=O)C(=O)NCc1cccnc1 5.57

Follow-up item: CCCC[C@H](NC(=O)O[C@H](CN1CCN(c2ccc(C(F)(F)F)cc2)C1=O)C(C)(C)C)C(=O)C(=O)Nc1ccn[nH]1 6.27

Then this compound: CCCC[C@H](NC(=O)O[C@H](Cc1nnc(-c2ccc(F)cc2)o1)C(C)(C)C)C(=O)C(=O)N[C@H](C)c1ccccc1 6.28

Moving on to CCCC[C@H](NC(=O)O[C@H](Cn1cnc(-c2ccc(C(F)(F)F)cc2)c1)C(C)(C)C)C(=O)C(=O)Nc1ccn[nH]1 6.80

###

assay: The equilibrium solubility exhibited in a fasted state-simulated intestinal fluid at pH 6.8; assay type: ADME; details: human, read-out: FS-SIF
Would you mind telling me the reported solubility thermodynamic of each entry?
Express your answer in µg/mL, writing the number without its unit.

Fill in the blank: the reported solubility thermodynamic of CCCC[C@H](NC(=O)O[C@H](Cn1ccc(-c2ccc(C(F)(F)F)cc2)n1)C(C)(C)C)C(=O)C(=O)Nc1ccn[nH]1 is ____. 110

Next compound: CCCC[C@H](NC(=O)O[C@H](Cn1cnc(-c2ccc(C(F)(F)F)cc2)c1)C(C)(C)C)C(=O)C(=O)Nc1ccn[nH]1 130

Another: CCCC[C@H](NC(=O)O[C@H](CN1CCN(c2ccc(C(F)(F)F)cc2)C1=O)C(C)(C)C)C(=O)C(=O)Nc1ccn[nH]1 43

What do you have for CCCC[C@H](NC(=O)O[C@H](Cn1cc(-c2ccc(C(F)(F)F)cc2)cn1)C(C)(C)C)C(=O)C(=O)Nc1ccn[nH]1 ? 97

###

Give measured Vd for each item. Keep answers brief.
assay: Steady-state volume of distribution of compound was determined after i.v. administration; type: ADME, organism-based; settings: rat, in vivo, iv; read-out: VSS
Expressed in L/kg, but write only the number.

# lookup: Vd of CCCC[C@H](NC(=O)O[C@H](Cn1cc(-c2ccc(C(F)(F)F)cc2)cn1)C(C)(C)C)C(=O)C(=O)Nc1ccn[nH]1 2.1

For CCCC[C@H](NC(=O)O[C@H](Cn1cnc(-c2ccc(C(F)(F)F)cc2)c1)C(C)(C)C)C(=O)C(=O)Nc1ccn[nH]1 then? 2.4

Same question for CCCC[C@H](NC(=O)O[C@H](Cn1ccc(-c2ccc(C(F)(F)F)cc2)n1)C(C)(C)C)C(=O)C(=O)Nc1ccccn1 please. 1.8

// same read-out, input: CCCC[C@H](NC(=O)OC(Cc1nnc(-c2ccc(F)cc2)o1)C(C)(C)C)C(=O)C(=O)N[C@H]1CCCNC1=O (stereo partly specified) 1.4

# iterate: CCCC[C@H](NC(=O)O[C@H](Cc1nnc(-c2ccc(F)cc2)o1)C(C)(C)C)C(=O)C(=O)Nc1ccn[nH]1 3.6

Now the same for CCCC[C@H](NC(=O)O[C@H](CN1CCN(c2ccc(C(F)(F)F)cc2)C1=O)C(C)(C)C)C(=O)C(=O)Nc1ccn[nH]1 5

Lookup CCCC[C@H](NC(=O)O[C@H](Cc1nnc(-c2ccc(C(F)(F)F)cc2)o1)C(C)(C)C)C(=O)C(=O)NN1CCOC1=O 3.1

Follow-up item: CCCC[C@H](NC(=O)O[C@H](Cc1nnc(-c2ccc(C(F)(F)F)cc2)o1)C(C)(C)C)C(=O)C(=O)Nc1ccn[nH]1 1.9

Next up: CCCC[C@H](NC(=O)O[C@H](Cn1cnc(-c2ccc(C(F)(F)F)cc2)c1)C(C)(C)C)C(=O)C(=O)Nc1nccs1 1.8

Ok, now CCCC[C@H](NC(=O)O[C@H](Cn1ccc(-c2ccc(C(F)(F)F)cc2)n1)C(C)(C)C)C(=O)C(=O)NCc1ccno1 1.7

And what about the molecule CCCC[C@H](NC(=O)O[C@H](Cc1nnc(-c2ccc(F)cc2)o1)C(C)(C)C)C(=O)C(=O)NCc1cccnc1 ? 1.4
